Target: human Bruton's Tyrosine Kinase (Btk) (Homo sapiens (Human), UniProt Q06187)
Sequence (Q06187 whole entry): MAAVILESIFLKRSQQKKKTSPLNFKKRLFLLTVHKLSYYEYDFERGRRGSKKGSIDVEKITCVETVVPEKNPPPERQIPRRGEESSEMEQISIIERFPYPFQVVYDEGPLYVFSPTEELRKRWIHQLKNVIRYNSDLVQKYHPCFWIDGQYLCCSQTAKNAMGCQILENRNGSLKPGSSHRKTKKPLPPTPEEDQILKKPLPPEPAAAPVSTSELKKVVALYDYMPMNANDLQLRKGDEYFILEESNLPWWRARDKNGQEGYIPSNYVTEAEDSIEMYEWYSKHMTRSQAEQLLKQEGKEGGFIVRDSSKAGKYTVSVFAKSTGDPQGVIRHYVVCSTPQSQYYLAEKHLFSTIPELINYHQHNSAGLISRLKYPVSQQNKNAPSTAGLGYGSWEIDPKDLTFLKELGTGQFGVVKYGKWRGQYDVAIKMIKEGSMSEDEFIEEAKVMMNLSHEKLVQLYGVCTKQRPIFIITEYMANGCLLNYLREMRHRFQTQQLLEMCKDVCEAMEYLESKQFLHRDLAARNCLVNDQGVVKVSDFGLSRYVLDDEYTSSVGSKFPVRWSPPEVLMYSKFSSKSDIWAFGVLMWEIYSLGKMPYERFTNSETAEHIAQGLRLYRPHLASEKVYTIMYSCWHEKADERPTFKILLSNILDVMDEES
Assay: Recombinant Human Bruton's Tyrosine Kinase (Btk) Inhibition Assay (HTRF KinEASE-TK)
Type: biochemical
Details: 20 ng/ml rhBtk, 77 μM ATP (KM), 1 μM TK-Biotin substrate, 90 min; read-out: hBTK IC50
pIC50: −log10 of the molar value.

compound: Cc1c(-c2ncnc3[nH]c(-c4ccc(CN5CCNCC5)cc4)cc23)cccc1N1CCOc2cc(C3CC3)ccc2C1=O [Example A-1]
lt.gt.eq: =
pIC50: 8.15

compound: Cc1c(-c2ccnc3[nH]c(-c4ccc(CN5CCN(C)CC5)c(F)c4)cc23)cccc1N1CCOc2cc(C3CC3)ccc2C1=O [Example B-19]
lt.gt.eq: =
pIC50: 6.72

compound: CCN1CC(C(=O)N2CC=C(c3cc4c(-c5cccc(N6CCOc7cc(C8CC8)cc(F)c7C6=O)c5CO)ccnc4[nH]3)CC2)C1 [Example R-5]
lt.gt.eq: =
pIC50: 9.12

compound: N#CCN1CC(n2cc(-c3cc4c(-c5cccc(N6CCOc7cc(C8CC8)ccc7C6=O)c5CO)ccnc4[nH]3)cn2)C1 [Example S-2]
lt.gt.eq: =
pIC50: 7.92

compound: O=C1c2ccc(C3CC3)cc2OCCN1c1cccc(-c2ccnc3[nH]c(-c4ccc(C(O)CO)cc4)cc23)c1CO (stereo not shown) [Example P-8]
lt.gt.eq: =
pIC50: 7.60

compound: Cc1c(-c2ncnc3[nH]c(-c4ccc(CN5CCN(C)CC5)cc4)cc23)cccc1N1CCc2cc(C3CC3)ccc2C1=O [Example B-3]
lt.gt.eq: =
pIC50: 7.52

compound: CCN1CCN(Cc2ccc(-c3cc4c(-c5cccc(N6CCOc7cc(C8CC8)ccc7C6=O)c5CO)ccnc4[nH]3)cc2)CC1 [Example B-16]
lt.gt.eq: =
pIC50: 8.40

compound: O=C(CO)N1CC=C(c2cc3c(-c4cccc(N5CCOc6cc(C7CC7)cc(F)c6C5=O)c4CO)ccnc3[nH]2)CC1 [Example P-30]
lt.gt.eq: =
pIC50: 9.00

compound: Cc1c(-c2ncnc3[nH]c(-c4ccccc4)cc23)cccc1N1CCc2cc(C3CC3)ccc2C1=O [Example M-2]
lt.gt.eq: <
pIC50: 6.00

compound: CN1CCN(Cc2ccc(-c3cc4c(-c5cccc(N6CCOc7cc(C8CC8)ccc7C6=O)c5)c(C#N)cnc4[nH]3)cc2)CC1 [Example P-6]
lt.gt.eq: =
pIC50: 7.09

compound: CN1CCN(c2ccc(-c3cc4c(-c5cccc(-n6ccc7cc(C8CC8)ccc7c6=O)c5CO)ncnc4[nH]3)cc2)CC1 [Example C-1]
lt.gt.eq: =
pIC50: 8.30

compound: CN1CCN(Cc2ccc(-c3cc4c(-c5cccc(N6CCOc7cc(C8CC8)ccc7C6=O)c5CO)ccnc4[nH]3)cc2)CC1 [Example B-13]
lt.gt.eq: =
pIC50: 8.52

compound: CN1CC(n2cc(-c3cc4c(-c5cccc(N6CCOc7cc(C8CC8)ccc7C6=O)c5CO)ccnc4[nH]3)cn2)C1 [Example D-7]
lt.gt.eq: =
pIC50: 8.40
